All values here come from PubChem BioAssay.

TARGET OR SYSTEM: Torsin-1A (Homo sapiens)
ASSAY OVERVIEW: small-molecule binders of mutant TOR1A in lysate, primary screen, cell lysate, small-molecule microarray, COS7 lysate, 635/667 nm fluorescence (AID 1150);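 further: score pools 667 nm emission and signal to noise measuring lysate protein binding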
RUN PARAMETERS: COS7 hTOR1A mutant lysate, 635 nm fluorescence, higher = more signal
Assign fulfilled to entries whose composite z-score meets or exceeds 1; assign not fulfilled to the rest.

Before answering, review these 5 worked examples.
MOLECULE	DISCRETE LABEL
CCCC=C(CCC)[C@@H](NS(=O)(=O)c1ccc(C(F)(F)F)cc1)c1ccc(-c2ccccc2)cc1	not fulfilled
COCCOC(=O)N1C(=O)[C@@]2(c3ccccc31)[C@H](C(=O)N1CCc3cc(OC)c(OC)cc3C1)[C@H]1C(=O)O[C@H](c3ccccc3)[C@H](c3ccccc3)N1[C@@H]2c1ccccc1OCCO	not fulfilled
CCCCCCc1nc(C2CC2)c(C)c2c1[Si](C(C)C)(C(C)C)OC2	not fulfilled
CO[C@H]1O[C@H](CO)[C@@H](OC(=O)Nc2ccc3c(c2)OCO3)[C@H](OC(=O)Nc2ccccc2)[C@@H]1OC(=O)Nc1ccccc1	fulfilled
O=C(N1CCCCC1)[C@@]1(CCS(=O)(=O)c2ccccc2)N=C(c2ccc(OCCCO)cc2)O[C@H]1c1ccccc1	not fulfilled

Lookup: Tell me whether composite z-score is at least 1 here: CC(=O)NCCCC[C@@H]1NC(=O)[C@H]2C[C@@H](C(=O)NCCCCCCN(C)C)[C@@H](c3ccc(O)cc3)N2C1=O
Found: fulfilled

Lookup: Param item: COc1ccc(C(O)C2C=CC3C(=O)N(C)C(=O)C3N2N2CCCCC2)cc1OCc1ccccc1 (centres undefined)
Found: not fulfilled

Lookup: Param item: CCOC(=O)C[C@H]1[C@H](OC(=O)Cc2ccc3c(c2)OCO3)[C@@H](NC(=O)c2ccc3ccccc3c2)c2cc(OCCCO)ccc2N1C(=O)Cc1ccc(OC)cc1
Found: not fulfilled

Lookup: Param item: C=C(C)[C@@H]1CC=C(C(O)C2C=CC3C(=O)NC(=O)C3N2Nc2ccccn2)CC1 (some centres undefined)
Found: not fulfilled

Lookup: Param item: C=C[C@H](OC)[C@@H](OC(=O)Nc1ccc(SC)cc1)c1ccc(OC)c(O)c1
Found: not fulfilled

Lookup: Param item: COc1cc2c(cc1OC)CN(C(=O)[C@H]1[C@@H]3C(=O)O[C@@H](c4ccccc4)[C@@H](c4ccccc4)N3[C@@H](c3ccccc3OCCO)[C@]13C(=O)Nc1ccc(C#CC4(O)CCCCCC4)cc13)CC2
Found: fulfilled
